test.target: Serine/threonine-protein kinase 33 (Homo sapiens) (UniProt Q9BYT3)
Sequence (Q9BYT3 whole entry, looked up): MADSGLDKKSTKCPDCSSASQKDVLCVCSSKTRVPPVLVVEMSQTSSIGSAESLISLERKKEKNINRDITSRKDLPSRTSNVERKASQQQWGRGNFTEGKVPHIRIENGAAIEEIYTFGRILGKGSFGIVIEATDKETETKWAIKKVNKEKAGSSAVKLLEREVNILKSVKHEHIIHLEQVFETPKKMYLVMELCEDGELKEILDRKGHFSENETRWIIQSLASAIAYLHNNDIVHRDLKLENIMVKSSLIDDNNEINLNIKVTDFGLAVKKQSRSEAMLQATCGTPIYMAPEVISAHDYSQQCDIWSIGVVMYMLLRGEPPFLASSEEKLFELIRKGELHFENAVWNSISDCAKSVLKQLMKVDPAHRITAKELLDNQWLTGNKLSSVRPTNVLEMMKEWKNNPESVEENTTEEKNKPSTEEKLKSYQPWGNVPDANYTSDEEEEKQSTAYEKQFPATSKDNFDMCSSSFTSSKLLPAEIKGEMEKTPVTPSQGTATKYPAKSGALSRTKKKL
details: at 10 µM
readout.type: residual activity (%)
Response body: numeric value in %, unit text excluded.

Query for Serine/threonine-protein kinase 33 (Homo sapiens) (UniProt Q9BYT3): what residual activity does the record show for `O=C(Nc1nc2ccccc2n1CCN1CCOCC1)c1cccc([N+](=O)[O-])c1` ?
88

Next record, please: `COc1cc2nccc(Oc3ccc(NC(=S)NC(=O)c4ccccc4C)cc3)c2cc1OC`
90

Here is the next compound: `Cn1sc(=O)n(Cc2ccccc2)c1=O`
88

Then this compound: `CCCC(=O)Oc1ccc2[nH]c(C(=O)c3cc4ccccc4[nH]3)cc2c1`
91
